target: T1, human immunoglobulin E (hIgE) (human, UniProt P01854-1 1-428); test: competition ELISA, hIgE to coated hFcεRIα, pH 6
T1 construct: also called human IgE; Native IgE (Abcam)
T1 sequence (P01854 whole entry): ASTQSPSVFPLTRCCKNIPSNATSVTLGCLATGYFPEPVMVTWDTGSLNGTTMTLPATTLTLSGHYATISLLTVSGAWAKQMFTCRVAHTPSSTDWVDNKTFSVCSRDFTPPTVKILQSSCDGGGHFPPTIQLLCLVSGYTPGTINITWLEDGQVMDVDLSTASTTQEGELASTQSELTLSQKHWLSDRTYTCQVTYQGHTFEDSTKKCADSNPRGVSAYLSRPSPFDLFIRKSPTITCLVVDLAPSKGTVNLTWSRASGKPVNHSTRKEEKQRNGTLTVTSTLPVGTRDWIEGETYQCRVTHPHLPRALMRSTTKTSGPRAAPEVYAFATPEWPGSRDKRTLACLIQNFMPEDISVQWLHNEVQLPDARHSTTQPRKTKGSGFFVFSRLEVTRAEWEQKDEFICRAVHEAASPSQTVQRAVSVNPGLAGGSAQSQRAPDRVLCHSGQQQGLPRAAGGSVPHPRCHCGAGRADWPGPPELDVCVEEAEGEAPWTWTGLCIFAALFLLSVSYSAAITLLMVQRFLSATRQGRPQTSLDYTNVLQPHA
QUANTITY KIND: IC50 (µg/mL)
The reply should be a number in µg/mL, with the unit left off.

Data request, read-out IC50, for 18E2_VL Y34H_MG (antibody, V domains shown, germlined clone) VH: QLLESGGGLVQPGGSLRLSCAASGFTFSSYVMSWVRQAPGKGLEWVSSIYHDGSHTYYADFVKGRFTISRDNSKNTLYLQMNSLRAEDTAVYYCAKGTSYSGSYYYTDPFFGSWGQGTLVTVSS VL: SSELTQDPAVSVALGQTVRITCQGDRLGSRYIHWYQQKPGQAPVLVIYDDDRRPSGIPDRFSGSSSGNTASLTITGAQAEDEADYYCQSADSSGNPVFGGGTQLTVL
61.4
